Data provenance: the supplement of paper PMC6555819

Test system: PPARa:RXRa (NR concentration 270 nM, RXRa partner concentration 90 nM)
Assay: PBM binding z-score (relative to random genomic background probes); higher = stronger binding; sequences stand for … in GC…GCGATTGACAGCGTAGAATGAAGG
Could you please report measured PBM binding z-score for the items listed next?
One number for each entry.

// solved cases for PBM binding z-score follow
>>> measured_value("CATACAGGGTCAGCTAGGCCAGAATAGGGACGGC")
4.55
>>> measured_value("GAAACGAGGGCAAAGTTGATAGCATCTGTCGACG")
4.4
>>> measured_value("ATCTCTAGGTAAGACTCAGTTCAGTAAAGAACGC")
0.152

Give me PBM binding z-score for each of these sequences, listed below.
1. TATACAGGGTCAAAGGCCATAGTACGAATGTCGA
2. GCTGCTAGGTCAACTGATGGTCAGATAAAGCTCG
3. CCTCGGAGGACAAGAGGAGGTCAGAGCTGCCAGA

1: 6.27; 2: 3.87; 3: 1.62
